Assay: NCI Yeast Anticancer Drug Screen. Data for the rad52 strain (AID 147);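 also: 0% = growth of vehicle-treated control cultures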
Settings: S. cerevisiae rad52 mutant growth inhibition; at 1.2 µM; stronger effect = higher value
Experimental: Growth inhibition of yeast strains with defined genetic alterations is measured as a screen for potential anti-cancer activity. Selected strains with alterations in DNA damage repair or cell cycle control were exposed to compounds and growth inhibition was measured relative to vehicle treated controls. The strain used in this assay is rad52
The panel holds about 79,000 compounds, 15% with a hit somewhere; the sample as a whole holds those more often. Activity calls are given as the source filed them. Rule as the data show it: active = growth inhibition above about 70%; inactive = the rest.
Catalogue of growth inhibition values

{"molecule": "CC1=C(N2CC2)C(=O)c2ccccc2C1=O", "measured_property": "growth inhibition", "recorded_result": "1% (inactive)"}
{"molecule": "CC1=C(CO)C2=C(C)C3(CC3)[C@@](C)(O)C(=O)C2=C1", "measured_property": "growth inhibition", "recorded_result": "1% (inactive)"}
{"molecule": "CCN(CC)CCBr", "measured_property": "growth inhibition", "recorded_result": "1% (inactive)"}

Please fill in: growth inhibition reported for O=[N+]([O-])O.[NH-]C1CCCCC1[NH-].[NH-]C1CCCCC1[NH-].[NH-]C1CCCCC1[NH-].[OH-].[OH-].[OH-].[Pt+4].[Pt+4].[Pt+4] (stereo not drawn) = -29% (inactive)

# molecule Nc1nc(N)c2c(Cl)c(CNc3ccc(C(=O)NC(CC(=O)O)C(=O)O)cc3)ccc2n1 (stereo not drawn) ; its growth inhibition = 40% (inactive)

response.value for `Oc1ccc(Cl)cc1Cc1ccccc1` (field: growth inhibition) = -21% (inactive)

growth inhibition reading for `O=[N+]([O-])c1cc(S(=O)(=O)F)ccc1Cl` : 20% (inactive)

For `O=C(O)CCCOc1cc(Cl)c(Cl)cc1Cl` the molecule record lists growth inhibition as -13% (inactive)

* * *

Experiment: NCI Yeast Anticancer Drug Screen. Data for the cln2 rad14 strain (AID 165);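 also: 0% = growth equal to vehicle treated cultures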
Conditions: S. cerevisiae cln2 rad14 strain, at 50.0 µM, stronger effect = higher value
Description: Growth inhibition of yeast strains with defined genetic alterations is measured as a screen for potential anti-cancer activity. Selected strains with alterations in DNA damage repair or cell cycle control were exposed to compounds and growth inhibition was measured relative to vehicle treated controls. The strain used in this assay is cln2 rad14
The panel holds about 79,000 compounds, 15% with a hit somewhere; the sample as a whole holds those more often.
# cutoff 90% applies to growth inhibition; >= gives 1, < gives -1

Use these answered entries as a reference point.
{"compound": "CC(=O)OC1CCC2(C)C(CCC3C4=CCC(C5=CC(=O)OC5)C4(C)CCC32)C1 (configuration not stated)", "category": -1}
{"compound": "O=C(c1ccccc1)C1C(c2ccccc2[N+](=O)[O-])N1C1CCCCC1 (configuration not stated)", "category": -1}
{"compound": "CC(=O)O/C(=C1\\C[C@H]2[C@@H]3CC=C4C[C@@H](OC(C)=O)CC[C@]4(C)[C@H]3CC[C@]2(C)C1=O)C(F)(F)F", "category": 1}
{"compound": "CCCCC1CCCCCCc2[nH]c(/C=C3\\N=C(c4ccc[nH]4)C=C3OC)cc21 (configuration not stated)", "category": -1}
{"compound": "CC1CN1C1=C(Cl)C(=O)C(N2CC2C)=C(Cl)C1=O (configuration not stated)", "category": -1}
{"compound": "CCC[CH2][Sn]1([CH2]CCC)[O]CC(CN2CCCC2)[O]1 (configuration not stated)", "category": -1}

Item COc1ccc2c3c1OC1C(=O)C4CC5(c6c(O)ccc(O)c64)C(C2)N(C)CCC315 (configuration not stated) with growth inhibition of 90% or above?
1

* * *

test: NCI Yeast Anticancer Drug Screen. Data for the CLN2oe strain (AID 163);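 also: 0% = growth of vehicle-only control cultures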; conditions: S. cerevisiae CLN2oe strain, at 33.0 µM
The panel holds about 79,000 compounds, 15% with a hit somewhere; the sample as a whole holds those more often. The source made the active and inactive calls. Rule as the data show it: active = growth inhibition above about 70%; inactive = the rest.
The reply should be one of these categories: active, inactive

Hi, do you know how `CCNCC(=O)O[C@]1(CC)C(=O)OCc2c1cc1n(c2=O)Cc2cc3ccccc3nc2-1` came out in this test?
inactive

Entry CC1=C(O)C(=O)C=C2C1=CC=C1[C@@]2(C)CCC2(C)[C@@H]3C[C@@H](C)C(=O)C[C@]3(C)CC[C@]12C (stereo partly drawn) : call = ?
active

* * *

Assay: NCI Yeast Anticancer Drug Screen. Data for the rad50EPP+ strain (AID 151);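 also: 0% = growth of vehicle-treated control cultures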
Details: S. cerevisiae rad50 mutant strain, at 33.0 µM, stronger effect = higher value
Description: Growth inhibition of yeast strains with defined genetic alterations is measured as a screen for potential anti-cancer activity. Selected strains with alterations in DNA damage repair or cell cycle control were exposed to compounds and growth inhibition was measured relative to vehicle treated controls. The strain used in this assay is rad50EPP+
This is part of a sample that, as a whole, favours compounds with a hit. Of some 79,000 tested, about 15% had one in any assay.
Let's look at some molecules and their measured growth inhibition.
Respond with the bare value in %.

{"molecule": "CC(=O)O/C(=C1\\C[C@H]2[C@@H]3CC=C4C[C@@H](OC(C)=O)CC[C@]4(C)[C@H]3CC[C@]2(C)C1=O)C(F)(F)F", "growth inhibition [%]": 3}
{"molecule": "O=C(O)C1C2c3ccccc3C(c3ccccc32)C1C(=O)O (stereo not given)", "growth inhibition [%]": -3}
{"molecule": "c1c(N2CCOCC2)ssc1=[N+]1CCOCC1", "growth inhibition [%]": 3}

Value of growth inhibition reported for the molecule `Cc1c([N+](=O)[O-])oc2ccc3ccccc3c12` is 91

Value of measured growth inhibition for the entry `O=C1NC(=S)NC(=O)C1=Cc1ccc([N+](=O)[O-])o1` : 87

Measured growth inhibition of `c1ccc(N=c2nc(N3CCOCC3)ss2)cc1` : 56

For this molecule ( C[N+]1(CCCl)CC[N+](C)(CCCl)CC1 (stereo not given) ), measured growth inhibition is 7

So for `C=C[C@H]1CN2CC[C@H]1C[C@@H]2[C@@H](O)c1ccnc2ccccc12` , the logged growth inhibition turned out to be -3

// sample O=C(O)C1C2CCC(C2)C1c1ccccc1 (stereo not given) , its growth inhibition was -2

growth inhibition measured on C/C(CCl)=N/NC1=NC(c2ccccc2Cl)P(=O)(NCCCNP2(=O)SC(N/N=C(/C)CCl)=NC2c2ccccc2Cl)S1 (stereo not given) = 43

The value of growth inhibition measured for the molecule O=S(=O)(O)/C(=C\c1ccccc1)c1ccccc1 (tested in a mixture with another compound) turned out to be -3

Per the records, this molecule ( `O=c1oc2ccccc2c(O)c1C(c1ccc2c(c1)Cc1ccccc1-2)c1c(O)c2ccccc2oc1=O` ) has growth inhibition equal to 50

The measured growth inhibition associated with C[C@]12CCC(=O)C=C1CC[C@@H]1C2CC[C@@]2(C)C1CC[C@@H]2OC(=O)C12OC1CCC2=O (stereo not given in full) reads 94

`O=Cc1ccc(C(F)(F)F)cc1.[C-]#[O+].[C-]#[O+].[C-]#[O+].[Cr]` yielded growth inhibition of 46

Sample C/C(=N\N=C(N)N)C(CN1CCOCC1)C(c1ccccc1)c1c(O)c2ccccc2oc1=O (stereo not given) ; growth inhibition observed: -3

Reported growth inhibition for `CC(C)(C)c1cc([N+](=O)[O-])cc([N+](=O)[O-])c1O` was -25

`Nc1nc(N)c(-c2ccc(Cl)c(Cl)c2)c(CP(Cl)(Cl)(Cl)Br)n1` yielded growth inhibition of 33

// growth inhibition value for `NCCc1ccc(OCc2ccccc2)c(OCc2ccccc2)c1` : 11

COC(=O)C1c2cc3c(c(O)c2C(O)CC1(C)O)C(=O)c1c(O)cc2c(c1C3=O)OC1OC2(C)C(O)C(N(C)C)C1O (stereo not given) yielded growth inhibition of 61

Short answer for `Cc1cc[n+](C2=C(Nc3cccc(C(F)(F)F)c3)C(=O)c3ccccc3C2=O)cc1` : growth inhibition was 29

* * *

assay: NCI Yeast Anticancer Drug Screen. Data for the mlh1 rad18 strain (AID 175); conditions: S. cerevisiae mlh1 rad18 strain growth inhibition; at 5.0 µM (retest, dose inferred, filed as 0.5); stronger effect = higher value
Compounds without any hit were thinned out: in the full panel of roughly 79,000, 15% have a hit. Calls of active or inactive are those of the source. Cut-off read from the data, not from the text of the source: active = growth inhibition above about 70%; inactive = the rest.
Form field: growth inhibition (one value per entry).

The compound listed as C[CH2][Sn]1([CH2]C)[O]C2C(O)OC(CO)C(O)C2[O]1 (stereo not given) shows growth inhibition equal to 26% (inactive)

So, `Oc1cc[c]([Hg][Cl])cc1` ? Its growth inhibition was 99% (active)

Briefly, growth inhibition measured for CCC1CC2CCC(O2)C(C)C(=O)OC(C)CC2CCC(O2)C(C)C(=O)OC(CC)CC2CCC(O2)C(C)C(=O)OC(C)CC2CCC(O2)C(C)C(=O)O1 (stereo not given) : -15% (inactive)

Lab note: `CCCCCNC(=O)c1c(O)[nH]c(=S)[nH]c1=O` gave growth inhibition of 42% (inactive)

growth inhibition reading for `N#CC(=C=N)N=C(F)C(C#N)=C(C#N)C#N` : 25% (inactive)
